- tested.system: Sodium-dependent serotonin transporter (Homo sapiens)
- conditions.used: COS-7, at 100 nM
- Description: Inhibition of [3H]5-hydroxytryptamine reuptake at human SERT expressed in african green monkey COS7 cells at 100 nM
Catalogue of inhibition readings, one per entry.
Give the quantity in %, number only.

Ask | State the recorded inhibition for this entry: CNCCCC1(c2ccc(F)cc2)OCc2cc(C#N)ccc21 (configuration not stated)
Reply | 55.5

Ask | Entry under review: CNCCCC1(c2ccccc2)OC(C)(C)c2ccccc21 (configuration not stated) . Reported inhibition?
Reply | 1.65

Ask | What measured inhibition goes with CN(C)CCCC1(c2ccc(F)cc2)OCc2ccccc21 (configuration not stated) ?
Reply | 26.6

Ask | Find the recorded inhibition belonging to CNCCCC1(c2ccccc2)OCc2cc(C#N)ccc21 (configuration not stated) and report it.
Reply | 53.9

Ask | Looking for the measured inhibition of CNCCC(Oc1ccccc1OC)c1ccccc1 (configuration not stated) , can you help?
Reply | 12.8

Ask | Which value of inhibition has been reported for CNCCCC1(c2ccccc2)OCc2ccccc21 (configuration not stated) in the records?
Reply | 9.76

Ask | Which inhibition value is on record for CN(C)CCCC1(c2ccc(F)cc2)OC(C)(C)c2cc(C#N)ccc21 (configuration not stated) ?
Reply | 0.74

Ask | Which inhibition is listed for CNCCCC1(c2ccc(F)cc2)OC(C)(C)c2cc(C#N)ccc21 (configuration not stated) ?
Reply | 6.56

Ask | What does the record list as inhibition for CNCCCC1(c2ccc(F)cc2)OC(C)(C)c2ccccc21 (configuration not stated) ?
Reply | 3.89

Ask | Fill blank: measured inhibition of the compound CN(C)CCCC1(c2ccc(F)cc2)OC(C)(C)c2ccccc21 (configuration not stated) is ____.
Reply | 0.71

Ask | Dear colleague, I am looking for the recorded inhibition of the following compound: CN(C)CCCC1(c2ccccc2)OCc2cc(C#N)ccc21 (configuration not stated)
Reply | 27.4

Ask | Report inhibition for CNCCCC1(c2ccc(F)cc2)OCc2ccccc21 (configuration not stated) please.
Reply | 20.8

----------
- tested.system: Sodium-dependent serotonin transporter (Homo sapiens) (UniProt P31645);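 further: measures inhibition of [3H]5-hydroxytryptamine uptake through human SERT expressed in COS-7 cells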
- Sequence (P31645 whole entry, looked up): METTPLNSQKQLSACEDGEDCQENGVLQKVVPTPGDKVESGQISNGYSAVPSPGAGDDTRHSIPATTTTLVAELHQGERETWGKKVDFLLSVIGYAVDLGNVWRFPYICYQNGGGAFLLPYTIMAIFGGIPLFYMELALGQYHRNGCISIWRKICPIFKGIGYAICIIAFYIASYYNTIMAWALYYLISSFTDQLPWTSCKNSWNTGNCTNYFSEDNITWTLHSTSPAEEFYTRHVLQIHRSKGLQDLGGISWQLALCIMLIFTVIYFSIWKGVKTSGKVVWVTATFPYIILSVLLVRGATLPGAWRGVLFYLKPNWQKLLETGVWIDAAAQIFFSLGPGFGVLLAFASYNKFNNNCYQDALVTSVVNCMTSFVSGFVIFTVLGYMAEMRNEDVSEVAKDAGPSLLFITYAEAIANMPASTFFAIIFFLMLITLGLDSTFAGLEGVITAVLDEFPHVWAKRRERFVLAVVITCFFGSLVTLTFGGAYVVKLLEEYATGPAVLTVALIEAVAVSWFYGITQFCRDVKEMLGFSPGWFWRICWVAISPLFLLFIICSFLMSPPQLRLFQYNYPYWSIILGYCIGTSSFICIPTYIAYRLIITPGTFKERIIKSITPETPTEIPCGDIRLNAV
- conditions.used: COS-7, at 100 nM
property.measured: inhibition
Returns: string containing the numeric result and its unit.

Previously resolved entries follow.
| compound | val |
| --- | --- |
| CN(C)CCCC1(c2ccccc2)OC(C)(C)c2cc(C#N)ccc21 (centres undefined) | 0.69% |
| CN(C)CCCC1(c2ccccc2)OC(C)(C)c2ccccc21 (centres undefined) | 0.31% |
| CN(C)CCCC1(c2ccccc2)OCc2ccccc21 (centres undefined) | 8.66% |

Now take the following compound into account.
Ask | Please report the recorded inhibition for CNCCCC1(c2ccccc2)OC(C)(C)c2cc(C#N)ccc21 (centres undefined) .
Reply | 7.23%

FYI, the data here is from ChEMBL document CHEMBL1150287.
